Recorded IC50 for the following compounds
test system: MDA-MB-231; assay: Cytotoxicity against human MDA-MB-231 cells assessed as cell growth inhibition after 24 hrs by MTT assay; type: functional, cell-based; conditions: MDA-MB-231, 24 h
Write it as a number; the unit µM goes unstated.

Record excerpt, results attached:
compound	readout units	reported value
C[C@@H]1C[C@@](C)(O)C[C@H]2c3cc(OCc4ccc(Br)cc4)c(OCc4ccc(Br)cc4)cc3CCN12	µM	1.2
CC1(C)C[C@@H](O)C[C@H]2c3cc(OCc4ccccc4)c(OCc4ccccc4)cc3CCN21 (relative stereo)	µM	5.01
C[C@@H]1CC(=O)C[C@H]2c3cc(OCc4ccccc4)c(OCc4ccccc4)cc3CCN12 (relative stereo)	µM	2.52
C[C@@H]1C[C@@](C)(O)C[C@H]2c3cc(OCc4ccc(C(C)(C)C)cc4)c(OCc4ccc(C(C)(C)C)cc4)cc3CCN12	µM	0.98

Problem: Returns the measured IC50 for the input compound. Input: CC(=O)O[C@@]12CO[C@@H]1C[C@H](O)[C@@]1(C)C(=O)[C@H](O)C3=C(C)[C@@H](OC(=O)[C@H](O)[C@@H](NC(=O)OC(C)(C)C)c4ccccc4)C[C@@](O)([C@@H](OC(=O)c4ccccc4)[C@H]21)C3(C)C [DOCETAXEL ANHYDROUS]
Result: 0.032

----------
test system: DU-145; test: Cytotoxicity against human DU145 cells assessed as cell growth inhibition after 24 hrs by MTT assay; assay type: functional, cell-based; settings: DU-145, 24 h
measurement label: IC50

Record excerpt, results attached:
compound	IC50
COc1cc2c(cc1OC)[C@@H]1C[C@H](O)C[C@@H](c3ccccc3)N1CC2	> 20 µM
O=C1C[C@@H](c2ccc([N+](=O)[O-])cc2)N2CCc3cc(OCc4ccccc4)c(OCc4ccccc4)cc3[C@@H]2C1	> 20 µM
C[C@@H]1C[C@H](O)C[C@H]2c3cc(OCc4cccc(F)c4)c(OCc4cccc(F)c4)cc3CCN12	3.05 µM

Problem: Returns the measured IC50 for the input compound. Input: `C[C@@H]1C[C@H](O)C[C@H]2c3cc4c(cc3CCN12)OCO4`
Result: > 20 µM

Problem: Returns the measured IC50 for the input compound. Input: `O[C@@H]1C[C@@H](c2ccc(-c3ccccc3)cc2)N2CCc3cc(OCc4ccccc4)c(OCc4ccccc4)cc3[C@@H]2C1`
Result: 1.36 µM

Problem: Returns the measured IC50 for the input compound. Input: CC[C@@H]1CC(=O)C/C=C(/C)[C@H]2c3cc(OCc4ccccc4)c(OCc4ccccc4)cc3CCN12 (relative stereo)
Result: > 20 µM

Problem: Returns the measured IC50 for the input compound. Input: Cc1cc(C)cc(COc2cc3c(cc2OCc2cc(C)cc(C)c2)[C@@H]2CC(=O)C[C@@H](C)N2CC3)c1 (relative stereo)
Result: > 20 µM

----------
test system: MDA-MB-231; assay: Cytotoxicity against human MDA-MB-231 cells assessed as cell growth inhibition after 24 hrs by MTT assay; type: functional, cell-based; details: MDA-MB-231, 24 h
Recorded IC50 for the following compounds

compound	assayed target	IC50
COc1cc2c(cc1OC)[C@@H]1CC(=O)C[C@@H](c3ccccc3)N1CC2 (relative stereo)	MDA-MB-231	> 20 µM

Problem: Returns the measured IC50 for the input compound. Input: `O[C@@]1(c2ccccc2)C[C@@H](c2ccccc2)N2CCc3cc(OCc4ccccc4)c(OCc4ccccc4)cc3[C@@H]2C1`
Result: > 20 µM

Problem: Returns the measured IC50 for the input compound. Input: C[C@@H]1CC(=O)C[C@H]2c3cc(OCc4ccc(C(C)(C)C)cc4)c(OCc4ccc(C(C)(C)C)cc4)cc3CCN12 (relative stereo)
Result: > 20 µM

Problem: Returns the measured IC50 for the input compound. Input: `C[C@@H]1C[C@@H](O)C[C@H]2c3cc4c(cc3CCN12)OCO4`
Result: > 20 µM

Problem: Returns the measured IC50 for the input compound. Input: `C[C@@H]1C[C@H](O)C[C@H]2c3cc(OCc4ccc(C(C)(C)C)cc4)c(OCc4ccc(C(C)(C)C)cc4)cc3CCN12`
Result: 1.46 µM

Problem: Returns the measured IC50 for the input compound. Input: `C[C@@H]1C[C@@H](O)C[C@H]2c3cc(OCc4cc(F)cc(F)c4)c(OCc4cc(F)cc(F)c4)cc3CCN12`
Result: 2.11 µM

Problem: Returns the measured IC50 for the input compound. Input: Cc1cc(C)cc(COc2cc3c(cc2OCc2cc(C)cc(C)c2)[C@@H]2CC(=O)C[C@@H](C)N2CC3)c1 (relative stereo)
Result: > 20 µM
